target_entity: interaction of human SOS1 (SOS1) with human K-RasG12C (Homo sapiens (Human))
Sequence (Q07889 564-1049 limits assumed): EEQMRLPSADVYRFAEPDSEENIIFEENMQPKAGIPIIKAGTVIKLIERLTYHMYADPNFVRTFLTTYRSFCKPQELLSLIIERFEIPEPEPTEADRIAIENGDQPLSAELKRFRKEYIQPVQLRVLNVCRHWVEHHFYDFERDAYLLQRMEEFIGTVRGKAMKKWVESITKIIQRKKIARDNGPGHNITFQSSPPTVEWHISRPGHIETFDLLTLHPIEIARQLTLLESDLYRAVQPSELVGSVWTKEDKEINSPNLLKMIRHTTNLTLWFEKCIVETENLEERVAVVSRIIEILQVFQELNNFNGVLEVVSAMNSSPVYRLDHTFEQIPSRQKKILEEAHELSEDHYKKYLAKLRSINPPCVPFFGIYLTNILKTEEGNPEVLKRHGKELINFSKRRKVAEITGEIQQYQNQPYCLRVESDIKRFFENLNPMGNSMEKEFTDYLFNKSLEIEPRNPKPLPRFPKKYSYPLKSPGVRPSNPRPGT
protocol_description: Biochemical assay: hK-RasG12C interaction assay with hSOS1 (HTRF)
study_conditions: GST-hK-RasG12C with His-hSOS1, 60 min incubation at 20° C., mean, read-out: K-RasG12C - SOS interaction assay IC50 (mean)
parameter: IC50 (nM)

a. Cc1nc(N[C@H](C)c2cccc(C(F)(F)CO)c2F)c2cc(P3(=O)CC=CC3)ncc2n1 [Example 59]
b. Cc1nc(N[C@H](C)c2cccc(C(F)F)c2F)c2cc(P(C)(C)=O)ccc2n1 [Example 128]
c. Cc1nc(N[C@H](C)c2cccc(C(F)(F)F)c2C)c2cc(P3(=O)CCN(S(C)(=O)=O)CC3)ncc2n1 [Example 41]
d. CO[C@H](C)C(=O)N1CCP(=O)(c2cc3c(N[C@H](C)c4cccc(C(F)F)c4F)nc(C)nc3cn2)CC1 [Example 155]
e. Cc1nc(N[C@H](C)c2cccc(C(F)F)c2F)c2cc(P3(=O)CCN(C)CC3)ncc2n1 [Example 52]
In a descending ranking, list each entry from above by its IC50, from the largest value down to the smallest. // respond by listing labels in the order requested
c, e, b, d, a
(c: 174 nM, e: 35.5 nM, b: 20.9 nM, d: 11.1 nM, a: 7.06 nM)

The values you see were collected from patent US20240247015A1.
